- Target of assay: aggregated alpha-synuclein (Homo sapiens, UniProt P37840)
- Construct: made in house; host or cells: E. coli
- Measurement notes: Saturation binding assay, protocol 2a, alpha-synuclein fibrils
- Settings: fibril-binding saturation assay, summary statement; read-out: KD values, alpha-synuclein fibrils
Observation type: Kd

Smiles notation	Kd
Fc1cc(-c2cc(-c3ccc4c(c3)OCO4)n[nH]2)ccn1	< 10 nM

Measured Kd, CN(C)c1ccc(-c2cc(-c3ccnc(Br)c3)[nH]n2)cc1 : < 10 nM

response.value for CNc1ccc(-c2cc(-c3ccnc(Br)c3)[nH]n2)cc1 (field: Kd) = < 10 nM

====

Recorded Kd by entry
- Target of assay: aggregated Abeta (Homo sapiens)
- Construct: Aβ1-42 was obtained from rPeptide; purchased rPeptide, Watkinsville, Ga., USA
- Sequence (P05067 672-713 limits assumed): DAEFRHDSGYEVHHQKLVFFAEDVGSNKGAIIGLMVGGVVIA
- Measurement notes: Saturation binding assay, protocol 2a, Abeta fibrils
- Settings: saturation assay protocol 2a, [3H]-labeled compound

Smiles notation	Observation type	Assay value
CNc1ccc(-c2cc(-c3ccnc(Br)c3)[nH]n2)cc1	Kd	> 100 nM

Query CN(C)c1ccc(-c2cc(-c3ccnc(Br)c3)[nH]n2)cc1 on aggregated Abeta (Homo sapiens); Kd returned: > 100 nM

====

- Tested on: H4 cells overexpressing alpha-synuclein hemi-Venus fusion constructs (V1S+SV2)
- Measurement notes: Cellular model of aggregated alpha-synuclein-dependent toxicity, V1S+SV2 H4 cells
- Type: cell-based
- Settings: 10 μM compound, 100 μM FeCl3, 0.75% DMSO, 48 h
Change in cell number (rel. to DMSO control) [%] values by entry
Write the answer as a number in %, unit excluded.

Before answering, review these 5 worked examples.
Molecule	Assay value
Brc1ccnc(-c2cc(-c3ccc4c(c3)OCO4)n[nH]2)c1 [Compound 16]	−40.2
Brc1cccc(-c2cc(-c3ccc4c(c3)OCO4)n[nH]2)n1 [Compound 15]	−11.3
CN(C)c1ncc(-c2cc(-c3ccnc(F)c3)[nH]n2)cn1 [Compound 8]	−4.5
Brc1cc(-c2cc(-c3ccc(N4CCC4)cc3)n[nH]2)ccn1 [Compound 17]	−8.2
Nc1ccc(-c2cc(-c3ccnc(Br)c3)[nH]n2)cc1 [Compound 7]	−30.8

Kindly note the recorded Change in cell number (rel. to DMSO control) [%] for Clc1cc(-c2cc(-c3ccc4c(c3)OCO4)n[nH]2)ccn1 [Compound 14] , which is −21.9

Record summary for CNc1ccc(-c2cc(-c3ccnc(Br)c3)[nH]n2)cc1 [Compound 2] : reported Change in cell number (rel. to DMSO control) [%] = −25.8

Documented Change in cell number (rel. to DMSO control) [%] of Brc1cc(-c2cc(-c3ccc4c(c3)OCO4)n[nH]2)ccn1 [Compound 9] : −22.5

Record CN(C)c1ncc(-c2cc(-c3ccnc(Br)c3)[nH]n2)cn1 [Compound 6] . Reported Change in cell number (rel. to DMSO control) [%]: −34.0

So, Fc1cc(-c2cc(-c3ccc4c(c3)OCO4)n[nH]2)ccn1 [Compound 12] ? Its Change in cell number (rel. to DMSO control) [%] was −22.2

Form field Change in cell number (rel. to DMSO control) [%], entry Cn1nc(-c2ccc3c(c2)OCO3)cc1-c1ccnc(Br)c1 [Compound 18] : −11.8

Entry CN(C)c1ncc(-c2cc(-c3cccc(Br)c3)[nH]n2)cn1 [Compound 5] — recorded Change in cell number (rel. to DMSO control) [%] = −12.4

// Fc1cccc(-c2cc(-c3ccc4c(c3)OCO4)n[nH]2)n1 [Compound 11] : Change in cell number (rel. to DMSO control) [%] value = −17.4

Reported Change in cell number (rel. to DMSO control) [%] of Brc1cncc(-c2cc(-c3ccc4c(c3)OCO4)n[nH]2)c1 [Compound 10] : −32.8

Field Change in cell number (rel. to DMSO control) [%] (entry Fc1cncc(-c2cc(-c3ccc4c(c3)OCO4)n[nH]2)c1 [Compound 13] ) reads −6.1
